Test system: human prostate carcinoma DU145 cells
Experiment: Growth inhibition test (MTS)
Type: cell-based
Settings: 72 hours
attribute.measured: Cytotoxicity in MTS assay (ED50) (µM)
One number for each entry, in µM.

>>> df
                                   compound  numeric_value
0  Brc1c(Br)c(Br)c2[nH]c(NCCCn3ccnc3)nc2c1Br [Compound 65]           7.72
1  Brc1c(Br)c(Br)c2[nH]c(NCCN3CCCC3)nc2c1Br [Compound 14]           3.14
2  Brc1c(Br)c(Br)c2[nH]c(NCCN3CCOCC3)nc2c1Br [Compound 16]           8.64

Looking for the measured Cytotoxicity in MTS assay (ED50) of NCCCNc1nc2c(Br)c(Br)c(Br)c(Br)c2[nH]1 [Compound 11] , can you help?
7.62

* * *

Target: PIM1 (Homo sapiens, UniProt P11309)
Sequence (P11309 whole entry): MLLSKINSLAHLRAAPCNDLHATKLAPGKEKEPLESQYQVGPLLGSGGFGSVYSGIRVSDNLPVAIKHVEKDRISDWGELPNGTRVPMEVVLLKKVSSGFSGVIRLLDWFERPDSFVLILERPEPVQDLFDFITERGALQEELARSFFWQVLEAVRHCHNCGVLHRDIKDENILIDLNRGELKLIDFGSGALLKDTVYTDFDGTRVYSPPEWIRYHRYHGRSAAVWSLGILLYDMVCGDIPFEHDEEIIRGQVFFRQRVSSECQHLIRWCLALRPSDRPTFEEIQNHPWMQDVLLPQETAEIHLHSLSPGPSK
Assay: Radiometric kinase assay (HotSpot)
attribute.measured: pIC50
Give bare numbers, as −log10 of the molar value.

Example cases with answers are listed next.
>>> print(df.to_string())
                                   compound  numeric_value
0  Brc1c(Br)c(Br)c2[nH]c(Nc3ccccc3)nc2c1Br [Compound 79]           5.82
1  Brc1c(Br)c(Br)c2[nH]c(NCCN3CCCCC3)nc2c1Br [Compound 13]           7.64
2  Brc1c(Br)c(Br)c2[nH]c(NCCN3CCOCC3)nc2c1Br [Compound 16]           7.17
3  NCCCCNc1nc2c(Br)c(Br)c(Br)c(Br)c2[nH]1 [Compound 61]           8.28

// for each compound in input: emit pIC50
1. NCCCNc1nc2c(Br)c(Br)c(Br)c(Br)c2[nH]1 [Compound 11]
2. NCC(O)CNc1nc2c(Br)c(Br)c(Br)c(Br)c2[nH]1 (stereo not drawn) [Compound 90]
3. Brc1c(Br)c(Br)c2[nH]c(NCCCN3CCCCC3)nc2c1Br [Compound 59]

[8.32, 8.04, 7.06]

Would you be so kind as to report pIC50 for each listed record?
1. Brc1c(Br)c(Br)c2[nH]c(NCCCn3ccnc3)nc2c1Br [Compound 65]
2. CN1CCN(c2nc3c(Br)c(Br)c(Br)c(Br)c3[nH]2)CC1 [Compound 21]

1. 7.06
2. 7.18

* * *

Molecular target: CK2α (Homo sapiens, UniProt P68400)
Sequence (P68400 whole entry): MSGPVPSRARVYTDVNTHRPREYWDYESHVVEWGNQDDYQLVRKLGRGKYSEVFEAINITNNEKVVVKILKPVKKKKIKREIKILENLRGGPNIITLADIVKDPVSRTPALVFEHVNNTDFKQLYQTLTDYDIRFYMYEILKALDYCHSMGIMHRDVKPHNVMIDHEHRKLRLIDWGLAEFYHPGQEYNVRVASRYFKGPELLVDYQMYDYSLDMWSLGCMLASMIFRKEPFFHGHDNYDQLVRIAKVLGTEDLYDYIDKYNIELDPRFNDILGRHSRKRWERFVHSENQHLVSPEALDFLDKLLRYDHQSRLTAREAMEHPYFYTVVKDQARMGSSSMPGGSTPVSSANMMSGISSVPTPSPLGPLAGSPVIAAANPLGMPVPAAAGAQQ
Experiment: Radiometric kinase assay (HotSpot)
Kindly supply the reported pIC50 values for the records listed here.
Answers are plain numbers, as −log10 of the molar value.

Look up pIC50 for the entries below, preserving their order.
1. CN1CCN(c2nc3c(Br)c(Br)c(Br)c(Br)c3[nH]2)CC1 [Compound 21]
2. Brc1c(Br)c(Br)c2[nH]c(NCCN3CCOCC3)nc2c1Br [Compound 16]
3. Brc1c(Br)c(Br)c2[nH]c(N3CCNCC3)nc2c1Br [Compound 20]

1: 5.74; 2: 5.16; 3: 6.88

* * *

Test: Solubility in pH 7.4
Settings: phosphate buffer
Exercise: state measured solubility at 24 h for each of the compounds provided.
One number for each entry, in µM.

Examples with answers:
                                   compound  measurement_units  numeric_value
0  NCC(O)CNc1nc2c(Br)c(Br)c(Br)c(Br)c2[nH]1 (centres unmarked)                 µM             72
1  Brc1c(Br)c(Br)c2[nH]c(NCCN3CCOCC3)nc2c1Br                 µM             23
2     NCCCNc1nc2c(Br)c(Br)c(Br)c(Br)c2[nH]1                 µM            370

// switching to the query compound
So what's the measured solubility at 24 h for this one? `Brc1c(Br)c(Br)c2[nH]c(NCCN3CCCC3)nc2c1Br`
31
